Biological target: E. coli MurF (Escherichia coli, UniProt P11880)
Sequence (P11880 whole entry): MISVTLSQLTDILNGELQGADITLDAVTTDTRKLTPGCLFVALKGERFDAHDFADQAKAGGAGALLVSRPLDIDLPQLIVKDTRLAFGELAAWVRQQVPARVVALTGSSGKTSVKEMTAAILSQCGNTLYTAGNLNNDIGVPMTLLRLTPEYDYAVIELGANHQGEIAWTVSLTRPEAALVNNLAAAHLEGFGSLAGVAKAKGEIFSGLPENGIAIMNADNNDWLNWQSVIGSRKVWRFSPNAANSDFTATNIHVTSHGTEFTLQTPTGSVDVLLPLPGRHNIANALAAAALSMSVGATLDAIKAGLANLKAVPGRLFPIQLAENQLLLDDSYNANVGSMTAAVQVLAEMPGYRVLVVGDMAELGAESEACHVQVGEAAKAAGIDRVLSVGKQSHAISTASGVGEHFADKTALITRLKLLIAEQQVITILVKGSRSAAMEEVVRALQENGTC
Assay: biochemical
Details: 0.25 h, Table S1, PKIS screening; read-out: RA [%] at 100 µM MurF
Readout kind: remaining activity at 100 µM (%)
Hi! Could you send only the number? It should be in %, unit omitted.

# Molecule, Readout kind, Recorded measurement
data = [
    ("COC(=O)Nc1nc2ccc(Oc3ccc(NC(=O)Nc4ccccc4)cc3)cc2[nH]1 [GW694590A]", "remaining activity at 100 µM", 75),
]

Exercise: Recall the recorded remaining activity at 100 µM for FC(F)(F)c1cccc(Nc2nccc(-c3cnn4nc(-c5ccccc5)ccc34)n2)c1 [GW819077X] with E. coli MurF (Escherichia coli, UniProt P11880) and state it.
Solution: 58

Exercise: Param readout = remaining activity at 100 µM; param system = E. coli MurF (Escherichia coli, UniProt P11880); param query = O=C1Nc2ccc(-c3cccnc3)cc2C1=Cc1cc(Br)c(O)c(Br)c1 [GW429374A] ; response: value
Solution: 16

Exercise: Enter reported remaining activity at 100 µM observed with E. coli MurF (Escherichia coli, UniProt P11880) for CCOc1ccc2c(-c3ccnc(Nc4cccc(C(F)(F)F)c4)n3)cnn2n1 [GW811761X]
Solution: 74

Exercise: Query remaining activity at 100 µM on E. coli MurF (Escherichia coli, UniProt P11880) for CCS(=O)(=O)c1ccc(OC)c(Nc2ncc(-c3ccccc3Cl)o2)c1 [GW622055X]
Solution: 80

Exercise: Identify the measured remaining activity at 100 µM of `NS(=O)(=O)c1ccc(-c2ccc3c(NC(=O)C4CC4)n[nH]c3c2)cc1` for E. coli MurF (Escherichia coli, UniProt P11880).
Solution: 83

Exercise: Hello, I am looking for reported remaining activity at 100 µM with E. coli MurF (Escherichia coli, UniProt P11880) for COc1cccc(-n2ncc3c(N/N=C/c4ccncc4)ncnc32)c1 [GW784752X] . Could you help?
Solution: 93

Exercise: Report remaining activity at 100 µM for NC(=O)c1ccc2c(-c3ccnc(NCCCO)n3)c(-c3ccc(F)cc3)nn2c1 [GW581744X] tested on E. coli MurF (Escherichia coli, UniProt P11880).
Solution: 79

Exercise: Under E. coli MurF (Escherichia coli, UniProt P11880): remaining activity at 100 µM value of `O=C1NC(=O)C(c2ccccc2Cl)=C1Nc1cccc(O)c1` ?
Solution: 88

Each recorded value in this set is attributed to paper PMC6522912.
